# ASSAY OVERVIEW: Equilibrium solubility study of polymorphs in different vehicles
# Format: physicochemical
# CONDITION DETAILS: FaSSIF, 37±2 °C, 24 h, suspension ~10 mg/mL; 1440 min; in mg/mL (unit assumed)
QUANTITY MEASURED: Equilibrium solubility

[
  {
    "COMPOUND": "Cc1cc(Nc2ncc3c(=O)n4n(c3n2)-c2cccc(n2)[C@](C)(O)CC/C=C\\C4)ccc1OC1CCN(C)CC1 [Crystal form D of compound IE]",
    "QUANTITY MEASURED": "Equilibrium solubility",
    "OBSERVED VALUE": 0.81
  },
  {
    "COMPOUND": "Cc1cc(Nc2ncc3c(=O)n4n(c3n2)-c2cccc(n2)[C@](C)(O)CC/C=C\\C4)ccc1OC1CCN(C)CC1 [Crystal form C of compound IE]",
    "QUANTITY MEASURED": "Equilibrium solubility",
    "OBSERVED VALUE": 0.710
  },
  {
    "COMPOUND": "Cc1cc(Nc2ncc3c(=O)n4n(c3n2)-c2cccc(n2)[C@](C)(O)CC/C=C\\C4)ccc1OC1CCN(C)CC1 [Crystal form B of compound IE]",
    "QUANTITY MEASURED": "Equilibrium solubility",
    "OBSERVED VALUE": 1.23
  },
  {
    "COMPOUND": "Cc1cc(Nc2ncc3c(=O)n4n(c3n2)-c2cccc(n2)[C@](C)(O)CC/C=C\\C4)ccc1OC1CCN(C)CC1 [Crystal form A of compound IE]",
    "QUANTITY MEASURED": "Equilibrium solubility",
    "OBSERVED VALUE": 1.73
  }
]

###

# System: A427 cells
# ASSAY OVERVIEW: Tumor cell proliferation inhibitory activity assay (CCK-8)
# Format: cell-based, Human
# CONDITION DETAILS: Homo sapiens, A-427, 72 h compound incubation, CCK-8
pIC50: −log10 of the molar value.
Reported pIC50 by item:

[
  {
    "COMPOUND": "C=CCn1c(=O)c2cnc(Nc3ccc(N4CCN(C)CC4)cc3)nc2n1-c1ccc2c(n1)C(O)(CC)CC2 (centres unmarked) [ZN-c3, reference compound]",
    "pIC50": 6.89
  },
  {
    "COMPOUND": "Cc1cc(Nc2ncc3c(=O)n4n(c3n2)-c2cccc(n2)[C@](C)(O)CCC=CC4)ccc1OC1CCN(C)CC1 (stereo in doubt)",
    "pIC50": 7.89
  },
  {
    "COMPOUND": "COc1cc(Nc2ncc3c(=O)n4n(c3n2)-c2cccc(n2)[C@](C)(O)CCC=CC4)ccc1OC1CCN(C)CC1",
    "pIC50": 7.19
  },
  {
    "COMPOUND": "Cc1cc(Nc2ncc3c(=O)n4n(c3n2)-c2cccc(n2)C(C)(O)CCC=CC4)ccc1OC1(C)CCN(C)CC1 (centres unmarked)",
    "pIC50": 6.66
  },
  {
    "COMPOUND": "Cc1cc(Nc2ncc3c(=O)n4n(c3n2)-c2cccc(n2)[C@](C)(O)CCCCC4)ccc1OC1CCN(C)CC1",
    "pIC50": 6.82
  }
]

###

# ASSAY OVERVIEW: Solid-state stability study of polymorphs
# Assay type: physicochemical
# CONDITION DETAILS: 25 °C/60% RH, 7 days (long-term)
QUANTITY MEASURED: Purity (%)

[
  {
    "COMPOUND": "Cc1cc(Nc2ncc3c(=O)n4n(c3n2)-c2cccc(n2)[C@](C)(O)CC/C=C\\C4)ccc1OC1CCN(C)CC1 [Crystal form C of compound IE]",
    "OBSERVED VALUE": 98.75
  },
  {
    "COMPOUND": "Cc1cc(Nc2ncc3c(=O)n4n(c3n2)-c2cccc(n2)[C@](C)(O)CC/C=C\\C4)ccc1OC1CCN(C)CC1 [Crystal form D of compound IE]",
    "OBSERVED VALUE": 97.82
  },
  {
    "COMPOUND": "Cc1cc(Nc2ncc3c(=O)n4n(c3n2)-c2cccc(n2)[C@](C)(O)CC/C=C\\C4)ccc1OC1CCN(C)CC1 [Crystal form A of compound IE]",
    "OBSERVED VALUE": 98.01
  },
  {
    "COMPOUND": "Cc1cc(Nc2ncc3c(=O)n4n(c3n2)-c2cccc(n2)[C@](C)(O)CC/C=C\\C4)ccc1OC1CCN(C)CC1 [Crystal form B of compound IE]",
    "OBSERVED VALUE": 98.01
  }
]

###

# ASSAY OVERVIEW: Solid-state stability study of polymorphs
# Assay type: physicochemical
# CONDITION DETAILS: 60 °C, 7 days (high-temperature, RH < 30%)

[
  {
    "COMPOUND": "Cc1cc(Nc2ncc3c(=O)n4n(c3n2)-c2cccc(n2)[C@](C)(O)CC/C=C\\C4)ccc1OC1CCN(C)CC1 [Crystal form A of compound IE]",
    "UOM": "%",
    "Purity (%)": 98.06
  },
  {
    "COMPOUND": "Cc1cc(Nc2ncc3c(=O)n4n(c3n2)-c2cccc(n2)[C@](C)(O)CC/C=C\\C4)ccc1OC1CCN(C)CC1 [Crystal form D of compound IE]",
    "UOM": "%",
    "Purity (%)": 97.74
  },
  {
    "COMPOUND": "Cc1cc(Nc2ncc3c(=O)n4n(c3n2)-c2cccc(n2)[C@](C)(O)CC/C=C\\C4)ccc1OC1CCN(C)CC1 [Crystal form B of compound IE]",
    "UOM": "%",
    "Purity (%)": 98.24
  },
  {
    "COMPOUND": "Cc1cc(Nc2ncc3c(=O)n4n(c3n2)-c2cccc(n2)[C@](C)(O)CC/C=C\\C4)ccc1OC1CCN(C)CC1 [Crystal form C of compound IE]",
    "UOM": "%",
    "Purity (%)": 98.72
  }
]

###

# ASSAY OVERVIEW: Equilibrium solubility study of polymorphs in different vehicles
# Assay type: physicochemical
# CONDITION DETAILS: fassgf, 37±2 °C, suspension ~10 mg/mL

[
  {
    "COMPOUND": "Cc1cc(Nc2ncc3c(=O)n4n(c3n2)-c2cccc(n2)[C@](C)(O)CC/C=C\\C4)ccc1OC1CCN(C)CC1 [Crystal form D of compound IE]",
    "solubility thermodynamic at 24 h / µg/mL": 8440
  }
]

###

# SYSTEM: YES1 kinase (Homo sapiens)
# Sequence (P07947 whole entry): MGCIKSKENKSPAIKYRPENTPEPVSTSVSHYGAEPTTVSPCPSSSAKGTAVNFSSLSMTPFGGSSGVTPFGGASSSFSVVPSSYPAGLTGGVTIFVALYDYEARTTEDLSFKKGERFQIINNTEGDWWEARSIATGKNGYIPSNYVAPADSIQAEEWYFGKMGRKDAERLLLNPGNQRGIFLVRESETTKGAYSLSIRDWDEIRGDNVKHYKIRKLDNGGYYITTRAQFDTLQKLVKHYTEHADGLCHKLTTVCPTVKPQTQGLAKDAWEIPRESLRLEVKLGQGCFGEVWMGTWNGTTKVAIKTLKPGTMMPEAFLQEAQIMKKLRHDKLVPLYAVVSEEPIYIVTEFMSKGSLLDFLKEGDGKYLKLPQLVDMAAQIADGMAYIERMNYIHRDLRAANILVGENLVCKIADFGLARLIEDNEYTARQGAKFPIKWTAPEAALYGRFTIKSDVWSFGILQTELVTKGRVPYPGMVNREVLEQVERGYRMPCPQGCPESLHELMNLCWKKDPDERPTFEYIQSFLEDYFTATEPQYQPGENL
# ASSAY OVERVIEW: YES1 protein kinase inhibitory activity assay (HTRF)
# Type: biochemical
# CONDITION DETAILS: summary statement on the assay results
QUANTITY MEASURED: inhibition of the Yes target (in words)

[
  {
    "MOLECULE": "Cc1cc(Nc2ncc3c(=O)n4n(c3n2)-c2cccc(n2)[C@](C)(O)CCC=CC4)ccc1OC1CCN(C)CC1 (stereo in doubt)",
    "QUANTITY MEASURED": "inhibition of the Yes target (in words)",
    "OBSERVED VALUE": "strongly inhibited"
  },
  {
    "MOLECULE": "CCOP1(=O)CCN(c2ccc(Nc3ncc4c(=O)n5n(c4n3)-c3cccc(n3)C(C)(O)CCC=CC5)cc2F)CC1 (stereo not drawn)",
    "QUANTITY MEASURED": "inhibition of the Yes target (in words)",
    "OBSERVED VALUE": "strongly inhibited"
  },
  {
    "MOLECULE": "CCOP1(=O)CCN(c2ccc(Nc3ncc4c(=O)n5n(c4n3)-c3cccc(n3)C(C)(O)CCC=CC5)cc2C)CC1 (racemic)",
    "QUANTITY MEASURED": "inhibition of the Yes target (in words)",
    "OBSERVED VALUE": "strongly inhibited"
  }
]

###

The next entries give measured IC50 for Wee1 kinase (Homo sapiens).

[
  {
    "MOLECULE": "Cc1cc(Nc2ncc3c(=O)n4n(c3n2)-c2cccc(n2)C(C)(O)CC/C=C\\C4)ccc1NC1CCN(C)CC1 (single isomer, unassigned) [Compound 203A]",
    "IC50 (nM)": 13.2
  },
  {
    "MOLECULE": "Cc1cc(Nc2ncc3c(=O)n4n(c3n2)-c2cccc(n2)C(C)(O)CCC=CC4)ccc1OC1CN(C)[C@H]1C (stereo partly drawn) [Compound 202]",
    "IC50 (nM)": 16.4
  },
  {
    "MOLECULE": "C=CCn1c(=O)c2cnc(Nc3ccc(N4CCN(C)CC4)cc3)nc2n1-c1ccc2c(n1)C(O)(CC)CC2 (stereo not drawn) [ZN-c3, reference compound]",
    "IC50 (nM)": 5.6
  }
]
